# assayed target: T1, human PSMA on PSMA-expressing cells (human, UniProt Q04609 1-750)
# T1 construct: Cell line is named under assay or readout in each row; also called B16F10.9/hPSMA; B16F10.9/PSMA
# T1 sequence (Q04609 whole entry): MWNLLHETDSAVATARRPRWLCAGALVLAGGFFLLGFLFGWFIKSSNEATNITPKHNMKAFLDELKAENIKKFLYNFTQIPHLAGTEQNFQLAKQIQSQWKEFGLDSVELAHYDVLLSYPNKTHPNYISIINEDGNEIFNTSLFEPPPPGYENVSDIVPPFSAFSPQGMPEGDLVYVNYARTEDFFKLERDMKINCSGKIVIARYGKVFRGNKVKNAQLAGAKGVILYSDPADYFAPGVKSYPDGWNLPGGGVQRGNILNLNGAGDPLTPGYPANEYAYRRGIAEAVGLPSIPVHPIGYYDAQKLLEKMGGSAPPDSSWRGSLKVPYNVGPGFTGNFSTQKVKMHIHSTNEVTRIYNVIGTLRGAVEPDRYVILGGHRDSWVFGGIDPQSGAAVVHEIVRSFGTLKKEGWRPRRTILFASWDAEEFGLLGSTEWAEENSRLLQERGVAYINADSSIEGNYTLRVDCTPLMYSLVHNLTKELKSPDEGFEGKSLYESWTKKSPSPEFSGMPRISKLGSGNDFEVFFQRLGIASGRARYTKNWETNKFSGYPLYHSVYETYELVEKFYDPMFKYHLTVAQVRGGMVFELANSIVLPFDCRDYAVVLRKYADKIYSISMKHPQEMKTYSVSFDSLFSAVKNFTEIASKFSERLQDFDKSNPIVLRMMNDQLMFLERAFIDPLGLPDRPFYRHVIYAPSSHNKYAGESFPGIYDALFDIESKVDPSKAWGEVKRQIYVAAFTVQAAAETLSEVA
# method description: FACS on B16F10.9/PSMA cells
measured property: EC50 (nM)
Give bare numbers, in nM.

Q: Recorded EC50 of BSPSMA/CD3-1400 (bispecific antibody, IgG4, V domains shown, modified (chimeric) IgG4 Fc domain; also called PSMA-VH-11810 x CD3-VH-G14) VH 1: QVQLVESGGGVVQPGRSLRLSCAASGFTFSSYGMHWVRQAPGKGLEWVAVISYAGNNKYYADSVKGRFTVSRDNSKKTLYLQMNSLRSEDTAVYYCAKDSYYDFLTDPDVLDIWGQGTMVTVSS VH 2: EVQLVESGGGLVQPGRSLRLSCAASGFTFDDYSMHWVRQAPGKGLEWVSGISWNSGSIGYADSVKGRFTISRDNAKNSLYLQMNSLRAEDTALYYCAKYGSGYGKFYHYGMDVWGQGTTVTVSS VL: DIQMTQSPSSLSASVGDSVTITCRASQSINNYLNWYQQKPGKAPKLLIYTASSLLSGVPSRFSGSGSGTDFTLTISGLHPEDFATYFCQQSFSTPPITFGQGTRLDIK , please.
Result: 1.3

Taken from patent US20190127480A1.
